# procedureDetails: Cytotoxicity against human Jurkat T cells after 72 hrs
# Assay type: cell-based
Rule for this label: fulfilled means GI50 at 72 h is less than 20 µM; not fulfilled means GI50 at 72 h is at least 20 µM.

Past entries and their recorded results:
>  <compound>
O=C(CN(CCC(c1ccccc1)c1ccccc1)C(=O)CNCC1CCCO1)NCCC(c1ccccc1)c1ccccc1 (centres undefined)

>  <discreteLabel>
fulfilled

$$$$
>  <compound>
COc1ccc(CCN(CC(=O)N(CCC(c2ccccc2)c2ccccc2)CC(N)=O)C(=O)CNCCC(c2ccccc2)c2ccccc2)cc1

>  <discreteLabel>
fulfilled

$$$$
>  <compound>
O=C(CNCCC(c1ccccc1)c1ccccc1)NCCC(c1ccccc1)c1ccccc1

>  <discreteLabel>
fulfilled

$$$$
>  <compound>
NC(=O)CN(CCC(c1ccccc1)c1ccccc1)C(=O)CN(CCC(c1ccccc1)c1ccccc1)C(=O)CNCC1CCCO1 (centres undefined) [TRIMER I]

>  <discreteLabel>
not fulfilled

$$$$
>  <compound>
COc1ccc(CCNCC(=O)N(CCC(c2ccccc2)c2ccccc2)CC(N)=O)cc1

>  <discreteLabel>
not fulfilled

$$$$
>  <compound>
COc1ccc(CCN(CC(N)=O)C(=O)CNCCC(c2ccccc2)c2ccccc2)cc1

>  <discreteLabel>
not fulfilled

$$$$

## Input # check: GI50 at 72 h < 20 µM for "COc1ccc(CCNCC(=O)NCCC(c2ccccc2)c2ccccc2)cc1"
## Output fulfilled

## Input Does the reported GI50 at 72 h of "NC(=O)CN(CCC(c1ccccc1)c1ccccc1)C(=O)CNCCC(c1ccccc1)c1ccccc1" stay below 20 µM?
## Output fulfilled

## Input Strictly below 20 µM: is that where GI50 at 72 h of "COc1ccc(CCN(CC(=O)NCCC(c2ccccc2)c2ccccc2)C(=O)CNCCC(c2ccccc2)c2ccccc2)cc1" sits?
## Output fulfilled
